Assayed System: T1, human DKK1 (human, UniProt O94907 32-266)
T1 sequence: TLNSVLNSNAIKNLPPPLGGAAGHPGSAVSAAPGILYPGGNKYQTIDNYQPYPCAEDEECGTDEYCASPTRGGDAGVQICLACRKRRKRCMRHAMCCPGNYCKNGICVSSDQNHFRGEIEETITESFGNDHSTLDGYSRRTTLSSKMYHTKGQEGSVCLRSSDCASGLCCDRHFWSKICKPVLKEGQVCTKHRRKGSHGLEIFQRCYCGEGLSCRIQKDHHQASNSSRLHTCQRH
Test: cell-based or functional assay
Observable: TCF EC50 (nM)
Answers are plain numbers, in nM.

List the reported TCF EC50 of each binder below.
1. 2.20.1 (antibody, V domains shown, Fully human hybridoma IgG, kappa (Vk)) VH: QVQLVESGGGVVQPGRSLRLSCAASGFTFSSYGMHWVRQAPGKGLEWVAVISYDGSDKYYADSVKGRFTISRDNSKNTLYLQMNSLRAEDTAVYYCARDQWGGSPAGPWGQGTLVTVSS VL: DIVMTQTPLSLSVIPGQPASISCKSSQSLLHSDGKTYLYWYLQRPGQPPQLLIYEVSNRFSGVPHRLSGSGSGTDFTLKISRVEAEDVGVYYCMQSIQVPWTFGQGTKVEIK
2. 5.78.1 (antibody, V domains shown, Fully human hybridoma IgG, kappa (Vk)) VH: QVQLVESGGGVVQPGRSLRLSCAASGFTFSSYGMHWVRQAPGKGLEWVAVILYDGSDNYYADSVKGRFTISRDNSKNTLYLQMNSLRAEDTAVYYCAREGIAVAGDYYYYGMDVWGQGTTVTVSS VL: EIVLTQSPGTLSVSPGERATLSCRASQSVSSSYLAWYQQKPGQAPRLLIYGASGRATGIPDRFSGSGSGTDFILTISRLEPEDFAVYYCQQYGSSFTFGGGTKVEIK
3. 5.80.1 (antibody, V domains shown, Fully human hybridoma IgG, lambda (Vl)) VH: EVQLVQSGAEVKKPGESLKISCKGSGYSFTSYWIGWVRQMPGKGLEWMGIIYPGDSDTRYSPSFQGQVTISADKSISTAYLQWSSLTASDTAMYYCARQGESFDYWGQGTLVTVSS VL: QSVLTQPPSVSGAPGQRVTISCTGSSSNIGADYDVHWYQQLPGTAPKLLIYDYSNRPSGVPDRFSGSKSGTSASLAITGLQAEDEADYYCQSYDNSLSGYVVFGGGTKLTVL

# output
1: 10.7; 2: 3.75; 3: 3.22

List the reported TCF EC50 of each binder below.
1. 6.139.5 (antibody, V domains shown, Fully human hybridoma IgG, kappa (Vk)) VH: QVQLVESGGGVVQPGRSLRLSCAASGFTFSSYGMHWVRQAPGKGLEWVAVISYDGGDQYYADSVKGRFTISRDNSKNTLYLQMNSLRTEDTAEYYCARELRVLWGQGTLVTVSS VL: DIVMTQTPLSLSVTPRQPASISCKSSQSLLHSDGKTYLYWYLQKPGQPPQFLIYEVSNRFSGVPDRFSGSGSGTDFTLKISRVEAEDVGVYYCMQSIQLPWTFGQGTKVEIK
2. 2.41.1 (antibody, V domains shown, Fully human hybridoma IgG, kappa (Vk)) VH: QVQLVESGGGVVQPGRSLRLSCAASGFTFSSYGMHWVRQAPGKGLEWVAVISYDGSDKYYADSVKGRFTISRDNSKNTLYLQMNSLRAEDTAVYYCARAGYSLYYYYGMDVWGQGTTVTVSS VL: DIVMTQTPLSLSVTPGQPASISCKSSQSLLHSDGKTYLYWYLQKPGQPPQLLIYEVSNRFSGVPDRFSGSGSGTDFTLKISRVEAEDVGVYYCMQSKQLPFTFGPGTKVDIK
3. 5.85.1 (antibody, V domains shown) VH: EVQLVQSGAEVKKPGESLKISCKVSGYSFTTYWIGWVRQMPGKGLDWMGIIYPGDSDTRYSPSFQGQVTISADKSISTAYLQWSSLKASDTAMYYCARQGIAFDYWGQGTLVTVSS VL: QSVLTQPPSVSGAPGQRVTISCTGSSSNIGAGYDVHWYQQLPRTAPKLLIYGNSNRPSGVPDRFSDSKSGTSASLAITGLQAEDEADYYCQSYDSSLSVIFGGGTKLTVL

# output
1. 9.78
2. 32.1
3. 4.53

List the reported TCF EC50 of each binder below.
1. 5.31.1 (antibody, V domains shown, Fully human hybridoma IgG, kappa (Vk)) VH: QVQLVESGGGVVQPGRSLRLSCAASGFTFSSYGMHWVRQAPGKGLEWVAVIWYDGRNKYYADSVKGRFTISRDNSKNTLYLQMNSLRAEDTAVYYCARGGGAVADYNYYYGMDVWGQGTTVTVSS VL: DIQVTQSPSSLSASVGDRVTITCQASQDISNYLNWYQQKPGKAPKFLIYDASNLEAGVPSRFSGSGSGTDFTFTISSLQPEDIATYYCQQYDNLPLTFGGGTKVEIK
2. 6.116.6 (antibody, V domains shown, Fully human IgG, kappa (Vk)) VH: QVQLVESGGGVVQPGRSLRLSCAASGFTFSGYGMHWVRQAPGKGLEWVAVISYDGNDKYYADSVKGRFTISRDNAKNTLYLQMNSLRAEDTAVYYCARELRVLWGQGTLVTVSS VL: DIVMTQTPLSLSVTPGQPASISCKSGQSLLHNDGKTYLYWYLQKPGQPPQFLIYEVSNRFSRVPDRFSGSGSGTDFTLKISRVEAEDVGIYYCMQSIQLPWTFGQGTQVEIK
3. 6.37.5 (antibody, V domains shown, Fully human IgG, kappa (Vk)) VH: QVQLVESGGGVVQPGRSLRLSCAASGFTFSGYGMHWVRQAPGKGLEWVAVISYDGNDKYYADSVKGRFTISRDNAKNTLYLQMNSLRAEDTAVYYCARELRVLWGQGTLVTVSS VL: DIVMTQTPLSLSVTPGQPASISCKSGQSLLHSDGKTYLYWYLQKPGQPPQFLIYEVSNRFSRVPDRFSGSGSGTDFTLRISRVEAEDVGIYYCMQSIQLPWTFGQGTQVEIK
4. 6.147.4 (antibody, V domains shown, Fully human hybridoma IgG, lambda (Vl)) VH: QVQLVESGGGVVQPGRSLRLSCAASGFTFSRYDMHWVRQAPGKGLEWVAIIFYDGSNKYYADPVKGRFTISRDNSKNTLYLQMNSLRAEDTAVYYCATLAAAFDYWGQGTLVTVSS VL: YVLTQPPSVSVAPGQTARITCGGNNIGSKSVHWYQQKPGQAPVLVVYDDSDRPSEIPERFSGSNSGNTATLTISRVEAGDEADYYCQVWDSSSDHVVFGGGTRLTVL

# output
1: 5.29; 2: 4.69; 3: 6.57; 4: 3.95
